# TARGET OF ASSAY: recombinant human MAO-B (Homo sapiens)
# Construct: purchased Sigma-Aldrich; host or cells: baculovirus-infected insect cells (microsomes)
# Sequence (P27338 whole entry): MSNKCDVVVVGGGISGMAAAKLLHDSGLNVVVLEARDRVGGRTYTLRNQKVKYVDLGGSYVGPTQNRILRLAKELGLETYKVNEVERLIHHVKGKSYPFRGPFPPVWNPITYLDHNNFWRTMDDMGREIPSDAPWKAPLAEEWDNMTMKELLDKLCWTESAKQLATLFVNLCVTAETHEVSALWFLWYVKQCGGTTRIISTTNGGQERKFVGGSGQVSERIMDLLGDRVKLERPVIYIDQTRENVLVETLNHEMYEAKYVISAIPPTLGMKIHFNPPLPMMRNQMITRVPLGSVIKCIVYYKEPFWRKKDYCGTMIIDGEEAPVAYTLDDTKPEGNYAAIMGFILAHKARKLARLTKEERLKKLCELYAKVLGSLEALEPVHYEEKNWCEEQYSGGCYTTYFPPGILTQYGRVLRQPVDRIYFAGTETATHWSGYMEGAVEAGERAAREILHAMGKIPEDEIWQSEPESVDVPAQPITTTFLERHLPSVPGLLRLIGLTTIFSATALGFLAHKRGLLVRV
# ASSAY OVERVIEW: MAO-Glo chemiluminescent MAO-B inhibition assay;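 also: MAO-B from microsomes of baculovirus-infected insect cells, luciferin-based luminescence read-out, inhibition relative to enzyme activity with DMSO vehicle alone and no inhibitor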
# Format: biochemical
# CONDITION DESCRIPTION: test concentration 100 μM; mean ± standard deviation, triplicate; 90 min incubation
Label scheme for inhibition at 100 µM: lower than 10% is FALSE, 10% and above is TRUE.

A selection of reference data follows.
{"COMPOUND": "O=Cc1ccc(O)c(O)c1 [3,4-Dihydroxybenzaldehyde]", "GROUP": "FALSE"}
{"COMPOUND": "COc1cc(CO)ccc1O [Vanillyl Alcohol]", "GROUP": "FALSE"}
{"COMPOUND": "COc1ccccc1O [2-Methoxyphenol]", "GROUP": "FALSE"}

# evaluate next
Is inhibition at 100 µM at least 10%? Consider O=Cc1ccc(O)cc1 [4-Hydroxybenzaldehyde]
TRUE
